Kindly state microsomal CLint for each of the entries shown.
Assay: Intrinsic clearance in human liver microsomes
Type: ADME
Details: read-out: CLH
Entry rule: numbers only, all in µL/min/mg.

Enquiry: Consider the compound CCCc1c(C(=O)Nc2cc(S(=O)(=O)N(C)C)ccc2C)cnn1-c1cccnc1 and give its measured microsomal CLint.
Return: 143

Enquiry: Any idea what microsomal CLint was measured for CCCc1c(C(=O)Nc2cc(S(=O)(=O)N(C)C)ccc2C)cnn1-c1ccccc1 ?
Return: 62

###

Target: Mitogen-activated protein kinase 14 (Homo sapiens, UniProt Q16539)
Sequence (Q16539 whole entry): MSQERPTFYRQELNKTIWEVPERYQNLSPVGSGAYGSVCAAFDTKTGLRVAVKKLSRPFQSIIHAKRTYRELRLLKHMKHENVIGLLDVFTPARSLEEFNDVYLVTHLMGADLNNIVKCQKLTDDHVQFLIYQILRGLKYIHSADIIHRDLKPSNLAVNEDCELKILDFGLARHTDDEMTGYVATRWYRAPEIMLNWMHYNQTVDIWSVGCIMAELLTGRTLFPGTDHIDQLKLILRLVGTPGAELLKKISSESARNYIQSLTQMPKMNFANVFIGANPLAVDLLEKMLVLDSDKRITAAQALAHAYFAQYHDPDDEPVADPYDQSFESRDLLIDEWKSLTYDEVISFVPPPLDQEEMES
Test: Competitive inhibition of human recombinant 5'-c-myc, His6-tagged p38-alpha using MK2 (46-400) as substrate
measured_metric: pKi
In simple prose, pKi is minus the logarithm base ten of a concentration in moles per litre.

Enquiry: Endpoint output: pKi of N#Cc1ccccc1Oc1ccc(C(=O)NCc2ccncc2)cc1 . Value?
Return: 6.54

###

Test: Lipophilicity, log D of the compound at pH 7.4
Assay type: physicochemical
Settings: buffer
measured_metric: logD
Answer field: number only, no words.

Enquiry: Consider the compound shown here: CCCc1c(C(=O)Nc2cc(S(=O)(=O)N(C)C)ccc2C)cnn1-c1cccnc1 What is its recorded logD?
Return: 2.3

###

Target: Cytochrome P450 3A4 (Homo sapiens, UniProt P08684)
Sequence (P08684 whole entry): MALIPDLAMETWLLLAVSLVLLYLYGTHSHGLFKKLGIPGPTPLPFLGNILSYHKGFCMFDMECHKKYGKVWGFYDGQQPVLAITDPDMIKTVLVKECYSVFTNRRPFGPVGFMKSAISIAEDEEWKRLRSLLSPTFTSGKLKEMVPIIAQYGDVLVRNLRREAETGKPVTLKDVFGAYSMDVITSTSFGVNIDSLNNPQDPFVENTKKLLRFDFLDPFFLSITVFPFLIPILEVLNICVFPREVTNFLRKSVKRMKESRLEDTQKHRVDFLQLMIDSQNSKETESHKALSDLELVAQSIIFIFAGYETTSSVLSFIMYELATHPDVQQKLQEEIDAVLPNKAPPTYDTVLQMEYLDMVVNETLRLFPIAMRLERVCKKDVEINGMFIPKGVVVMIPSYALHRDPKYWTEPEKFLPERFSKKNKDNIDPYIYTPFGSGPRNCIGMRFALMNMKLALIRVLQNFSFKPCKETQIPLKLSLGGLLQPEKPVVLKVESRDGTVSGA
measured_metric: pIC50
pIC50 (log units): -log10 of the concentration in mol/L.

Enquiry: Using the record for O=C(NCc1ccncc1)c1ccc(Oc2ccc(F)cc2)cc1 , report its pIC50.
Return: 6.00

###

Biological target: Mitogen-activated protein kinase 14 (Homo sapiens, UniProt Q16539)
Experiment: Inhibition of human recombinant 5'-c-myc, His6-tagged p38-alpha using MSK1 as substrate assessed as inhibition of phosphorylation after 60 mins by ELISA in presence of ATP
measured_metric: IC50 (µM)
Give just the number in µM; leave the unit off.

Enquiry: Any idea what IC50 was measured for CCCc1c(C(=O)Nc2cc(C(=O)OC)ccc2C)cnn1-c1ccccc1 ?
Return: 0.5

Enquiry: Would you mind telling me what IC50 value was observed for CCCc1c(C(=O)Nc2cc(F)ccc2C)cnn1-c1ccccc1 ?
Return: 2.5

Enquiry: Fill in: IC50 of CCCc1c(C(=O)Nc2cc(C(=O)O)ccc2C)cnn1-c1ccccc1 is ___
Return: 4.2

Enquiry: Given CCCc1c(C(=O)Nc2cc(S(C)(=O)=O)ccc2C)cnn1-c1ccccc1 , state its recorded IC50.
Return: 23

Enquiry: State the recorded IC50 for this entry: Cc1ccccc1Oc1ccc(C(=O)NCc2ccncc2)cc1
Return: 5.4

Enquiry: Which IC50 is listed for CCCc1c(C(=O)Nc2cc(S(=O)(=O)N(C)C)ccc2C)cnn1CC(C)C ?
Return: 5.4

Enquiry: Dear colleague, I am looking for the recorded IC50 of the following compound: N#Cc1ccccc1Oc1ccc(C(=O)NCc2cccnc2)cc1
Return: 15

###

Task for the reader: assign each of the following compounds its reported IC50.
Biological target: Mitogen-activated protein kinase 14 (Homo sapiens)
Experiment: Inhibition of human recombinant 5'-c-myc, His6-tagged p38-alpha using MSK1 as substrate assessed as inhibition of phosphorylation after 60 mins by ELISA in presence of ATP
Provide only the numeric value, understood in µM.

Enquiry: Return reported IC50; argument: CCCc1c(C(=O)Nc2cc(C#N)ccc2C)cnn1-c1ccccc1
Return: 0.89

Enquiry: Return reported IC50; argument: O=C(NCc1ccncc1)c1ccc(Oc2ccccc2Cl)cc1
Return: 1.7

Enquiry: GET /values?readout=IC50&item= O=C(NCc1ccncc1)c1ccc(Oc2ccc(F)cc2)cc1
Return: 2.3

Enquiry: Name the reported IC50 value associated with the compound N#Cc1ccccc1Oc1ccc(C(=O)NCc2ccncc2)cc1
Return: 21

Enquiry: Entry O=C(NCc1ccncc1)c1ccc(Oc2ccc(Cl)cc2)cc1 has what IC50?
Return: 10

Enquiry: // lookup IC50 for CCCc1c(C(=O)Nc2cc(S(=O)(=O)N(C)C)ccc2C)cnn1Cc1ccccc1
Return: 6.3

Enquiry: Requested field: IC50. Item: CCCc1c(C(=O)Nc2cc(S(=O)(=O)N(C)C)ccc2C)cnn1-c1ccc(Cl)cc1
Return: 20

###

Target: Mitogen-activated protein kinase 14 (Homo sapiens)
Test: Inhibition of human recombinant 5'-c-myc, His6-tagged p38-alpha using MK2 (46 to 400) as substrate assessed as inhibition of phosphorylation after 60 mins by ELISA in presence of ATP
Exercise: for every item that follows, state its recorded log10 IC50.
Record value = log10 of IC50 given in nM.

Enquiry: Dear colleague, I am looking for the recorded log10 IC50 of the following compound: N#Cc1ccccc1Oc1ccc(C(=O)NCc2ccccc2)cc1
Return: 2.65

Enquiry: Could you share which log10 IC50 value was measured for CCCc1c(C(=O)Nc2cc(C(=O)OC)ccc2C)cnn1-c1ccccc1 ?
Return: 2.69

Enquiry: Requested read-out: log10 IC50. Entry: CCCc1c(C(=O)Nc2cc(C#N)ccc2C)cnn1-c1ccccc1
Return: 1.18

Enquiry: Fill blank: measured log10 IC50 of the compound CCCc1c(C(=O)Nc2cc(S(=O)(=O)N(C)C)ccc2C)cnn1-c1cccnc1 is ____.
Return: 2.43

Enquiry: Param item = O=C(NCc1ccncc1)c1ccc(Oc2ccc(F)cc2)cc1 ; retrieve measured log10 IC50.
Return: 3.32

Enquiry: What value of log10 IC50 has been reported for the following compound? N#Cc1ccccc1Oc1ccc(C(=O)NCc2cccnc2)cc1
Return: 2.75

Enquiry: Item under review: O=C(NCc1ccncc1)c1ccc(Oc2ccc(Cl)cc2)cc1 . Reported log10 IC50?
Return: 3.38

Enquiry: I would be grateful if you could share the reported log10 IC50 for CCCc1c(C(=O)Nc2cc(S(=O)(=O)N(C)C)ccc2C)cnn1-c1ccc(Cl)cc1 .
Return: 2.59

Enquiry: Param item = O=C(NCc1ccncc1)c1ccc(Oc2ccccc2Cl)cc1 ; retrieve measured log10 IC50.
Return: 3.23

Enquiry: Given the entry N#Cc1ccccc1Oc1ccc(C(=O)NCc2ccncn2)cc1 , report its measured log10 IC50.
Return: 3.45

Enquiry: Dear colleague, I am looking for the recorded log10 IC50 of the following compound: CCCc1c(C(=O)Nc2cc(S(=O)(=O)N(C)C)ccc2C)cnn1CC(C)C
Return: 1.88

Enquiry: Entry CCCc1c(C(=O)Nc2cc(F)ccc2C)cnn1-c1ccccc1 has what log10 IC50?
Return: 2.04

Enquiry: Form field: reported log10 IC50 of CCCc1c(C(=O)Nc2cc(C(=O)O)ccc2C)cnn1-c1ccccc1
Return: 1.93

Enquiry: What value of measured log10 IC50 is listed for N#Cc1ccccc1Oc1ccc(C(=O)NCc2ccncc2)cc1 ?
Return: 2.78

Enquiry: Using the record for CCCc1c(C(=O)Nc2cc(S(C)(=O)=O)ccc2C)cnn1-c1ccccc1 , report its log10 IC50.
Return: 2.28

Enquiry: GET /values?readout=log10 IC50&item= Cc1ccccc1Oc1ccc(C(=O)NCc2ccncc2)cc1
Return: 3.30

Enquiry: Need log10 IC50, item CCCc1c(C(=O)Nc2cc(S(=O)(=O)N(C)C)ccc2C)cnn1Cc1ccccc1
Return: 1.72

###

Assign pIC50 to each entry below.
Target: Mitogen-activated protein kinase 14 (Homo sapiens)
Experiment: Inhibition of human recombinant 5'-c-myc, His6-tagged p38-alpha using MSK1 as substrate assessed as inhibition of phosphorylation after 60 mins by ELISA in presence of ATP
pIC50: −log10 of the molar value.

Enquiry: State the recorded pIC50 for this entry: N#Cc1ccccc1Oc1ccc(C(=O)NCc2ccncn2)cc1
Return: < 4.00

Enquiry: Endpoint output: pIC50 of CCCc1c(C(=O)Nc2cc(OCc3ccccc3)ccc2C)cnn1-c1ccccc1 . Value?
Return: < 4.00

Enquiry: Given the compound N#Cc1ccccc1Oc1ccc(C(=O)NCc2ccccc2)cc1 , what is its reported pIC50?
Return: < 4.00

Enquiry: Value lookup for pIC50; key = CCCc1c(C(=O)Nc2cc(S(=O)(=O)N(C)C)ccc2C)cnn1-c1cccnc1
Return: < 4.52

Each recorded value in this set is attributed to ChEMBL document CHEMBL3393028.
